Could you please report measured MIC90 for the items listed next?
Test system: Streptococcus pneumoniae
Run Description: Antimicrobial activity against Streptococcus pneumoniae serotype 3 by broth microdilution method
Type: functional
Numbers only, in µg/mL.

CC(=O)NC[C@H]1CN(c2ccc(N3CCOCC3)c(F)c2)C(=O)O1 ... 1

// next item, MIC90 requested
# input Recorded MIC90 of C[C@H]1COc2c(N3CCN(C)CC3)c(F)cc3c(=O)c(C(=O)O)cn1c23.C[C@H]1COc2c(N3CCN(C)CC3)c(F)cc3c(=O)c(C(=O)O)cn1c23.O , please.
# output 1

###

Could you please report measured Activity for the items listed next?
Tested on: Streptococcus pneumoniae
Run Description: Antimicrobial activity against Streptococcus pneumoniae serotype 3 assessed as percent susceptible isolates by broth microdilution method
Type: functional
One number for each entry, in %.

Worked cases, answers included:
CN[C@H](CC(C)C)C(=O)N[C@H]1C(=O)N[C@@H](CC(N)=O)C(=O)N[C@H]2C(=O)N[C@H]3C(=O)N[C@H](C(=O)N[C@H](C(=O)O)c4cc(O)cc(O)c4-c4cc3ccc4O)[C@H](O)c3ccc(c(Cl)c3)Oc3cc2cc(c3O[C@@H]2O[C@H](CO)[C@@H](O)[C@H](O)[C@H]2O[C@H]2C[C@](C)(N)[C@H](O)[C@H](C)O2)Oc2ccc(cc2Cl)[C@H]1O [VANCOMYCIN] ... 100
COc1c(N2C[C@@H]3CCCN[C@@H]3C2)c(F)cc2c(=O)c(C(=O)O)cn(C3CC3)c12 [MOXIFLOXACIN] ... 100
CO/N=C(\C(=O)N[C@@H]1C(=O)N2C(C(=O)O)=C(CSc3nc(=O)c(O)nn3C)CS[C@H]12)c1csc(N)n1 [CEFTRIAXONE] ... 100
C[C@H]1COc2c(N3CCN(C)CC3)c(F)cc3c(=O)c(C(=O)O)cn1c23.C[C@H]1COc2c(N3CCN(C)CC3)c(F)cc3c(=O)c(C(=O)O)cn1c23.O [LEVOFLOXACIN] ... 100
CC1(C)S[C@@H]2[C@H](NC(=O)COc3ccccc3)C(=O)N2[C@H]1C(=O)O [PENICILLIN V] ... 98.8
CCC[C@@H]1C[C@@H](C(=O)N[C@@H]([C@H]2O[C@H](SC)[C@H](O)[C@@H](O)[C@H]2O)[C@H](C)Cl)N(C)C1 [CLINDAMYCIN] ... 96.3
C[C@@H](O)[C@H]1C(=O)N2C(C(=O)O)=C(SCCNC=N)C[C@H]12 [IMIPENEM ANHYDROUS] ... 100
CC1(C)S[C@@H]2[C@H](NC(=O)Cc3ccccc3)C(=O)N2[C@H]1C(=O)O [PENICILLIN G] ... 100

Give measured Activity for every item shown.
1. CC[C@H]1OC(=O)[C@H](C)[C@@H](O[C@H]2C[C@@](C)(OC)[C@@H](O)[C@H](C)O2)[C@H](C)[C@@H](O[C@@H]2O[C@H](C)C[C@H](N(C)C)[C@H]2O)[C@](C)(O)C[C@@H](C)C(=O)[C@H](C)[C@@H](O)[C@]1(C)O [ERYTHROMYCIN]
2. CC(=O)NC[C@H]1CN(c2ccc(N3CCOCC3)c(F)c2)C(=O)O1 [LINEZOLID]
3. CO/N=C(\C(=O)N[C@@H]1C(=O)N2C(C(=O)O)=C(COC(N)=O)CS[C@H]12)c1ccco1 [CEFUROXIME]

# output
[95.1, 100, 100]

###

Could you please report measured MIC50 for the items listed next?
System: Streptococcus pneumoniae
Run Description: Antimicrobial activity against Streptococcus pneumoniae serotype 3 by broth microdilution method
Format: functional

COc1c(N2C[C@@H]3CCCN[C@@H]3C2)c(F)cc2c(=O)c(C(=O)O)cn(C3CC3)c12 [MOXIFLOXACIN] ... ≤ 0.5 µg/mL
CC1(C)S[C@@H]2[C@H](NC(=O)Cc3ccccc3)C(=O)N2[C@H]1C(=O)O [PENICILLIN G] ... ≤ 0.03 µg/mL
CO/N=C(\C(=O)N[C@@H]1C(=O)N2C(C(=O)O)=C(COC(N)=O)CS[C@H]12)c1ccco1 [CEFUROXIME] ... ≤ 1 µg/mL
CC1(C)S[C@@H]2[C@H](NC(=O)COc3ccccc3)C(=O)N2[C@H]1C(=O)O [PENICILLIN V] ... ≤ 0.03 µg/mL
C[C@H]1COc2c(N3CCN(C)CC3)c(F)cc3c(=O)c(C(=O)O)cn1c23.C[C@H]1COc2c(N3CCN(C)CC3)c(F)cc3c(=O)c(C(=O)O)cn1c23.O [LEVOFLOXACIN] ... 1 µg/mL

Give measured MIC50 for every item shown.
1. C[C@@H](O)[C@H]1C(=O)N2C(C(=O)O)=C(SCCNC=N)C[C@H]12 [IMIPENEM ANHYDROUS]
2. CC(=O)NC[C@H]1CN(c2ccc(N3CCOCC3)c(F)c2)C(=O)O1 [LINEZOLID]
3. CO/N=C(\C(=O)N[C@@H]1C(=O)N2C(C(=O)O)=C(CSc3nc(=O)c(O)nn3C)CS[C@H]12)c1csc(N)n1 [CEFTRIAXONE]

# output
1: ≤ 0.12 µg/mL; 2: 0.5 µg/mL; 3: ≤ 0.25 µg/mL

###

Could you please report measured MIC90 for the items listed next?
Test system: Streptococcus pneumoniae
Run Description: Antimicrobial activity against Streptococcus pneumoniae serotype 3 by broth microdilution method
Type: functional

C[C@@H](O)[C@H]1C(=O)N2C(C(=O)O)=C(SCCNC=N)C[C@H]12 [IMIPENEM ANHYDROUS] ... ≤ 0.12 µg/mL
CO/N=C(\C(=O)N[C@@H]1C(=O)N2C(C(=O)O)=C(CSc3nc(=O)c(O)nn3C)CS[C@H]12)c1csc(N)n1 [CEFTRIAXONE] ... ≤ 0.25 µg/mL
CCO/N=C(\C(=O)N[C@@H]1C(=O)N2C(C(=O)[O-])=C(Sc3nc(-c4cc[n+](C)cc4)cs3)CS[C@H]12)c1nsc(NP(=O)(O)O)n1 [CEFTAROLINE FOSAMIL] ... ≤ 0.008 µg/mL

// next item, MIC90 requested
# input Can you look up MIC90 on Streptococcus pneumoniae for CC1(C)S[C@@H]2[C@H](NC(=O)Cc3ccccc3)C(=O)N2[C@H]1C(=O)O [PENICILLIN G] ?
# output ≤ 0.03 µg/mL

###

Tested on: Streptococcus pneumoniae
Run Description: Antimicrobial activity against Streptococcus pneumoniae serotype 15A assessed as percent susceptible isolates by broth microdilution method
Format: functional
Metric Name: Activity (%)
Give bare numbers, in %.

Worked cases, answers included:
CN[C@H](CC(C)C)C(=O)N[C@H]1C(=O)N[C@@H](CC(N)=O)C(=O)N[C@H]2C(=O)N[C@H]3C(=O)N[C@H](C(=O)N[C@H](C(=O)O)c4cc(O)cc(O)c4-c4cc3ccc4O)[C@H](O)c3ccc(c(Cl)c3)Oc3cc2cc(c3O[C@@H]2O[C@H](CO)[C@@H](O)[C@H](O)[C@H]2O[C@H]2C[C@](C)(N)[C@H](O)[C@H](C)O2)Oc2ccc(cc2Cl)[C@H]1O ... 100
CC1(C)S[C@@H]2[C@H](NC(=O)[C@H](N)c3ccc(O)cc3)C(=O)N2[C@H]1C(=O)O ... 100

Give measured Activity for every item shown.
1. CO/N=C(\C(=O)N[C@@H]1C(=O)N2C(C(=O)O)=C(COC(N)=O)CS[C@H]12)c1ccco1
2. C[C@H]1COc2c(N3CCN(C)CC3)c(F)cc3c(=O)c(C(=O)O)cn1c23.C[C@H]1COc2c(N3CCN(C)CC3)c(F)cc3c(=O)c(C(=O)O)cn1c23.O
3. C[C@@H](O)[C@H]1C(=O)N2C(C(=O)O)=C(SCCNC=N)C[C@H]12 [IMIPENEM ANHYDROUS]
4. COc1c(N2C[C@@H]3CCCN[C@@H]3C2)c(F)cc2c(=O)c(C(=O)O)cn(C3CC3)c12

# output
1. 91.4
2. 100
3. 100
4. 100

Give measured Activity for every item shown.
1. CC(=O)NC[C@H]1CN(c2ccc(N3CCOCC3)c(F)c2)C(=O)O1
2. CC1(C)S[C@@H]2[C@H](NC(=O)Cc3ccccc3)C(=O)N2[C@H]1C(=O)O
3. CC[C@H]1OC(=O)[C@H](C)[C@@H](O[C@H]2C[C@@](C)(OC)[C@@H](O)[C@H](C)O2)[C@H](C)[C@@H](O[C@@H]2O[C@H](C)C[C@H](N(C)C)[C@H]2O)[C@](C)(O)C[C@@H](C)C(=O)[C@H](C)[C@@H](O)[C@]1(C)O
4. CCC[C@@H]1C[C@@H](C(=O)N[C@@H]([C@H]2O[C@H](SC)[C@H](O)[C@@H](O)[C@H]2O)[C@H](C)Cl)N(C)C1
5. CC1(C)S[C@@H]2[C@H](NC(=O)COc3ccccc3)C(=O)N2[C@H]1C(=O)O
6. CO/N=C(\C(=O)N[C@@H]1C(=O)N2C(C(=O)O)=C(CSc3nc(=O)c(O)nn3C)CS[C@H]12)c1csc(N)n1

# output
100
100
5.3
10.5
10.5
100
